experiment: clinical; conditions: human, plasma, oral, 8 mg, Cmax, 8 mg t.i.w., cycle 1 Last Wednesday, mean
Assay endpoint: Cmax (ng/mL)
Numbers only, in ng/mL.

Prompt: Report Cmax for C=CC(=O)N1CC[C@H](n2nc(C#Cc3cc(OC)cc(OC)c3)c3c(N)ncnc32)C1 [futibatinib] please.
Response: 106

###

test: clinical; details: human, plasma, oral, 200 mg, T1/2, 200 mg t.i.w., cycle 1 Day 1, mean
Assay endpoint: half-life (h)
Give bare numbers, in h.

Prompt: Which value of half-life has been reported for C=CC(=O)N1CC[C@H](n2nc(C#Cc3cc(OC)cc(OC)c3)c3c(N)ncnc32)C1 [futibatinib] in the records?
Response: 9.55

###

assay: clinical; settings: human, plasma, oral, 20 mg, AUC0–inf, 20 mg q.d., cycle 1 Day 1, mean
Assay endpoint: AUC(0-inf) (ng·h/mL)
One number for each entry, in ng·h/mL.

Prompt: Give its AUC(0-inf) value. Item: C=CC(=O)N1CC[C@H](n2nc(C#Cc3cc(OC)cc(OC)c3)c3c(N)ncnc32)C1
Response: 1300

###

assay: clinical; conditions: human, plasma, oral, 20 mg, Cmax, 20 mg q.d., cycle 1 Day 1, mean
Assay endpoint: Cmax
Don't forget the unit after the number, please.

Prompt: Fill in: Cmax of C=CC(=O)N1CC[C@H](n2nc(C#Cc3cc(OC)cc(OC)c3)c3c(N)ncnc32)C1 is ___
Response: 257 ng/mL

###

test: clinical; settings: human, plasma, oral, 24 mg, AUC0–inf, 24 mg t.i.w., cycle 1 Day 1, mean
Assay endpoint: AUC(0-inf)

Prompt: Name the recorded AUC(0-inf) for C=CC(=O)N1CC[C@H](n2nc(C#Cc3cc(OC)cc(OC)c3)c3c(N)ncnc32)C1 [futibatinib] .
Response: 2200 ng·h/mL

###

assay: clinical; settings: human, plasma, oral, 120 mg, T1/2, 120 mg t.i.w., cycle 1 Day 1, mean
Assay endpoint: half-life (h)
One number for each entry, in h.

Prompt: Query: half-life; subject: C=CC(=O)N1CC[C@H](n2nc(C#Cc3cc(OC)cc(OC)c3)c3c(N)ncnc32)C1
Response: 6.18

###

assay: clinical; conditions: human, plasma, oral, 24 mg, Tmax, 24 mg t.i.w., cycle 1 Day 1, median
Assay endpoint: Tmax
Be sure to follow the number with its unit.

Prompt: What value of Tmax has been reported for the following molecule? C=CC(=O)N1CC[C@H](n2nc(C#Cc3cc(OC)cc(OC)c3)c3c(N)ncnc32)C1
Response: 3 h

###

experiment: clinical; conditions: human, plasma, oral, 8 mg, AUC0–inf, 8 mg t.i.w., cycle 1 Day 1, mean
Assay endpoint: AUC(0-inf) (ng·h/mL)
Numbers only, in ng·h/mL.

Prompt: // query AUC(0-inf) value for entry C=CC(=O)N1CC[C@H](n2nc(C#Cc3cc(OC)cc(OC)c3)c3c(N)ncnc32)C1
Response: 315

###

experiment: clinical; details: human, plasma, oral, 8 mg, T1/2, 8 mg t.i.w., cycle 1 Last Wednesday, mean
Assay endpoint: half-life
Remember to put the unit after the number in your answer.

Prompt: What does the data say about its half-life? Entry: C=CC(=O)N1CC[C@H](n2nc(C#Cc3cc(OC)cc(OC)c3)c3c(N)ncnc32)C1
Response: 2.01 h
